Answer each item with its documented relative permittivity at zero frequency.
- assay notes: relative permittivity at zero frequency (dimensionless); xn = mol fraction of the nth substance listed
- setup conditions: 303.15 K; 101 kPa; Liquid; dielectric analyzer; x1 = 0.8
One number for each entry.

Use these answered entries as a reference point.
1. CC(O)CNCC(C)O (stereo not given) [N-(2-hydroxypropyl)-2-hydroxy-1-propanamine] + O | 16.65
2. CN(CCO)CCO [N-methyldiethanolamine] + O | 23.44
3. OCCN(CCO)CCO [triethanolamine] + O | 29.67
4. OCCNCCO [diethanolamine] + O | 26.95

The record that follows has no relative permittivity at zero frequency shown yet.
The measured relative permittivity at zero frequency associated with CC(C)(N)CO [2-amino-2-methylpropan-1-ol] + O reads 23.35

Provenance of the data: the NIST ThermoML archive (doi:10.1021/je600515j)
